target: angiotensin II receptor (Oryctolagus cuniculus); construct: The aorta was cut into 3~4 mm to form ring samples; from tissue; host or cells: isolated aorta rings of New Zealand White rabbits; assay: inhibition of angiotensin II induced contraction of isolated rabbit aorta rings; type: cell-based, New Zealand White rabbit; conditions: test compound incubated 20 minutes, 37° C., pH 7.4, read-out: IC50 (concentration being required to inhibit angiotensin II induced contraction by 50%)
Sequence (P34976 whole entry): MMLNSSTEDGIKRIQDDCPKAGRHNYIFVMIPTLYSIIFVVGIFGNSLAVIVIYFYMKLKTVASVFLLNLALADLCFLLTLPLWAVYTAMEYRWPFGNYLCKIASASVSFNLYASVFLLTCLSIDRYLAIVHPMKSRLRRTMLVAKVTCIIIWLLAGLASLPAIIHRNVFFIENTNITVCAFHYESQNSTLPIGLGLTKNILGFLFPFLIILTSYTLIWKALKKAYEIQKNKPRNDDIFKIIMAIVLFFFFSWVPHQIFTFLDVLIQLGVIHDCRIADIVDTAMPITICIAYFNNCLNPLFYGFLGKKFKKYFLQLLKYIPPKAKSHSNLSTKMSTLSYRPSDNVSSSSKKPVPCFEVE
Overview of recorded IC50 for various compounds
Give the value in nM but do not write nM after it.

Worked cases, answers included:
[
  {
    "COMPOUND": "CCc1nc(C)c(CC(=O)O)c(=O)n1Cc1ccc(-c2ccccc2-c2nnn[nH]2)cc1",
    "PROPERTY MEASURED": "IC50",
    "NUMERIC VALUE": 14.2
  },
  {
    "COMPOUND": "CCCCc1nc(C)c(CC(=O)N2CCCC(C(=O)N(CC)CC)C2)c(=O)n1Cc1ccc(-c2ccccc2-c2nn[nH]n2)cc1 (centres unmarked)",
    "PROPERTY MEASURED": "IC50",
    "NUMERIC VALUE": 3.64
  },
  {
    "COMPOUND": "CCCCc1nc(C)c(CC(=O)N2CCC(Cc3ccccc3)CC2)c(=O)n1Cc1ccc(-c2ccccc2-c2nn[nH]n2)cc1",
    "PROPERTY MEASURED": "IC50",
    "NUMERIC VALUE": 128
  },
  {
    "COMPOUND": "CCCCc1nc(C)c(CCC(=O)N2CCSCC2)c(=O)n1Cc1ccc(-c2ccccc2-c2nn[nH]n2)cc1",
    "PROPERTY MEASURED": "IC50",
    "NUMERIC VALUE": 4.06
  },
  {
    "COMPOUND": "CCCCc1nc(=O)c(CC(=O)N2CCCCC2)c(C)n1Cc1ccc(-c2ccccc2-c2nn[nH]n2)cc1",
    "PROPERTY MEASURED": "IC50",
    "NUMERIC VALUE": 405
  },
  {
    "COMPOUND": "CCCCc1nc(C)c(CCC(=O)N2CCOCC2)c(=O)n1Cc1ccc(-c2ccccc2-c2nn[nH]n2)cc1",
    "PROPERTY MEASURED": "IC50",
    "NUMERIC VALUE": 5.22
  },
  {
    "COMPOUND": "CCCCc1nc(=O)c(CCCC(=O)O)c(C)n1Cc1ccc(-c2ccccc2-c2nn[nH]n2)cc1",
    "PROPERTY MEASURED": "IC50",
    "NUMERIC VALUE": 17
  },
  {
    "COMPOUND": "CCCc1nc(=O)c(CCC(=O)O)c(C)n1Cc1ccc(-c2ccccc2-c2nn[nH]n2)cc1",
    "PROPERTY MEASURED": "IC50",
    "NUMERIC VALUE": 19.4
  }
]

Please report the measured IC50 for `CCCCc1nc(C)c(CCCC(=O)OCC)c(=O)n1Cc1ccc(-c2ccccc2-c2nnn[nH]2)cc1` tested on angiotensin II receptor (Oryctolagus cuniculus).
17

// output IC50; input CCCCc1nc(C)c(CCC(=O)N2CCCC(C(=O)N(CC)CC)C2)c(=O)n1Cc1ccc(-c2ccccc2-c2nn[nH]n2)cc1 (centres unmarked) ; system angiotensin II receptor (Oryctolagus cuniculus)
10.7

Give IC50 for this entry on angiotensin II receptor (Oryctolagus cuniculus): `CCc1nc(C)c(CCC(=O)O)c(=O)n1Cc1ccc(-c2ccccc2-c2nnn[nH]2)cc1`
22.7
